molecular target: hPPARγ (Homo sapiens); experiment: PPAR/Gal4 chimera luciferase reporter transactivation assay in transiently transfected Cos-7 cells (hPPARγ); assay type: cell-based
Sequence (P37231 238-505): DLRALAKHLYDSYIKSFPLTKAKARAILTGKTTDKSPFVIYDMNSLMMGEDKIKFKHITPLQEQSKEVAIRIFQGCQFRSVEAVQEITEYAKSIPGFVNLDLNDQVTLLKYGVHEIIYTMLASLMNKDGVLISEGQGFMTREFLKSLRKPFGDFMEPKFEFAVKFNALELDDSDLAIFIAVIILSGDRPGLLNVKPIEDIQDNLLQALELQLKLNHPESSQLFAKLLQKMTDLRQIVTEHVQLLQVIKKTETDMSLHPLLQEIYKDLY

MOLECULE	EC50
CCOC(=O)C(=CCCC1(C)CCc2cc(OCc3ccccc3)ccc2O1)OCC(F)(F)F (stereo not shown)	0.4 µM

* * *

molecular target: UniProt:Q07869; experiment: PPAR/Gal4 chimera luciferase reporter transactivation assay in transiently transfected Cos-7 cells (hPPARα); assay type: cell-based; details: COS-7, read-out: hPPARα Efficacy (%)
Sequence (Q07869 167-468): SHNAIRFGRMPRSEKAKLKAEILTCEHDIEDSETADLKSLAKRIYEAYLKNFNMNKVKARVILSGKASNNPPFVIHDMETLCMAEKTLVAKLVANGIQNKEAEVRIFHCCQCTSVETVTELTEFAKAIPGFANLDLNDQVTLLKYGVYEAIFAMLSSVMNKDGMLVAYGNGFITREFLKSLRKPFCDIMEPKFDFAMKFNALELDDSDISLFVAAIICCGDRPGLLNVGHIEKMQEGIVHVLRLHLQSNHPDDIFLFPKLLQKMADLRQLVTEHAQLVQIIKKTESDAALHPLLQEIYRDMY
This section presents compounds with their documented Emax values.

COMPOUND	ASSAYED_SYSTEM	UNITS_SYMBOL	Emax
C/C(=C\CCC1(C)CCc2cc(O)cc(C)c2O1)CC/C=C(\C)C(=O)O (stereo not shown) [Polycerasoidol, 1, polycerasoidol]	UniProt:Q07869	%	107
CCO/C(=C\CC/C(C)=C/CCC1(C)CCc2cc(OCc3ccccc3)ccc2O1)C(=O)O (stereo not shown) [Compound 11]	UniProt:Q07869	%	96
CCOC(=O)/C(=C/CC/C(C)=C/CCC1(C)CCc2cc(OCc3ccccc3)ccc2O1)OCC (stereo not shown) [Compound 10]	UniProt:Q07869	%	60
COC(=O)COC(=O)/C(C)=C/CC/C(C)=C/CCC1(C)CCc2cc(OC(=O)c3ccccc3)cc(C)c2O1 (stereo not shown) [Compound 6]	UniProt:Q07869	%	14
